Source of measurements: paper PMC8041284

Biological target: BTK (Homo sapiens)
Experiment: biochemical
Conditions: read-out: BTK inhibition (%), 0.75 uM BTK, […] probe 3l, 15 min preincubation
property: inhibition at 10 µM (%)
Write the value in % as a bare number.

Nc1nc(N)nc(N)n1 [PCM-0216468]    13.9
C[C@@H]1O[C@@H](O[C@H]2[C@H](O[C@H]3CC[C@@]4(C)[C@@H](CC[C@]5(C)[C@@H]4CC=C4[C@@H]6CC(C)(C)CC[C@]6(C(=O)O)CC[C@]45C)[C@]3(C)CO)OC[C@H](O)[C@@H]2O)[C@H](O)[C@H](O)[C@H]1O [PCM-0214969]    -10.9
Fc1cc(F)c2c(c1)[C@H]1C=CC[C@H]1C(c1cccnc1)N2 (stereo partly shown) [PCM-0215243]    -18.5

Task: Check the records and state inhibition at 10 µM for CC12CCC(CC1=O)C2(C)C (stereo not shown) [PCM-0214819]
Output: -3.9

----------
Molecular target: BTK (Homo sapiens)
Assay: biochemical
Details: read-out: BTK inhibition (%), 0.75 uM BTK, […] probe 3l, 15 min preincubation
property: inhibition at 10 µM

Cc1cc(Cl)ccc1OCCCC(=O)NO    7%
CC(C)(C)NS(=O)(=O)c1cncc(-c2cc(F)c3nc(N)nn3c2)c1    -4.8%
CCCCC[C@](C)(O)/C=C/[C@@H]1[C@@H](C/C=C\CCCC(=O)O)[C@@H](O)C[C@H]1O    -3.9%
OC1OC[C@@H](O)[C@@H](O)[C@@H]1O (stereo partly drawn)    10.8%
CCN1CCN(C(=O)Cc2ccc(Nc3ncc(F)c(Nc4ccc(C(=O)Nc5ccccc5Cl)cc4)n3)cc2)CC1    40.7%

Task: GET inhibition at 10 µM where system = BTK (Homo sapiens) and item = CC[C@H](NC(=O)[C@H](C)NC)C(=O)N1C[C@@H](O)C[C@H]1Cc1c(-c2[nH]c3cc(F)ccc3c2C[C@@H]2C[C@H](O)CN2C(=O)[C@H](CC)NC(=O)[C@H](C)NC)[nH]c2cc(F)ccc12
Output: 5.4%

Task: GET inhibition at 10 µM where system = BTK (Homo sapiens) and item = CCCOc1ccc2c(c1)CC[C@@H]1[C@@H]2CC[C@]2(C)[C@@H](OC)CC[C@@H]12
Output: -24.1%

Task: GET inhibition at 10 µM where system = BTK (Homo sapiens) and item = CC(=O)OCC1=C(C(=O)O)N2C(=O)[C@@H](N)[C@H]2SC1
Output: -8.5%

Task: GET inhibition at 10 µM where system = BTK (Homo sapiens) and item = NCCCC[C@H](NC(=O)[C@@H]1CCCN1C(=O)[C@@H]1CSSC[C@H](N)C(=O)N[C@@H](Cc2ccc(O)cc2)C(=O)N[C@@H](Cc2ccccc2)C(=O)N[C@@H](CCC(N)=O)C(=O)N[C@@H](CC(N)=O)C(=O)N1)C(=O)NCC(N)=O
Output: -19.6%

Task: GET inhibition at 10 µM where system = BTK (Homo sapiens) and item = CCCNC(=O)Nc1ccc(Oc2ncnc3cc(OC)c(OC)cc23)cc1Cl
Output: -11%

----------
Recorded inhibition at 10 µM values for a group of compounds are listed next.
Target: BTK (Homo sapiens)
Assay: biochemical
Settings: read-out: BTK inhibition (%), 0.75 uM BTK, […] probe 3l, 15 min preincubation
Write the value in % as a bare number.

Before answering, review these 7 worked examples.
O=C(Nc1nccs1)C(c1cc(F)ccc1O)N1Cc2ccccc2C1=O (centres unmarked)    13.8
C[C@]12CC[C@@H]3c4ccc(O)cc4CC[C@H]3[C@@H]1CC[C@@H]2OC(=O)CCC1CCCC1    0.8
COC[C@H](NC(=O)c1cnc(C)s1)C(=O)N[C@@H](COC)C(=O)N[C@@H](Cc1ccccc1)C(=O)[C@@]1(C)CO1    -4.6
CC(C)(O[C@@H]1O[C@H](CO)[C@@H](O)[C@H](O)[C@H]1O)[C@H]1Cc2cc3ccc(=O)oc3cc2O1    -1.5
O=C(Nc1cccnc1)N1CCC(Cc2cccc(Oc3ccc(C(F)(F)F)cn3)c2)CC1    -4.8
Cc1ccc(-c2c(-c3nn(C)c4ncnc(N5CC[C@H](N6CCCCC6)C5)c34)cnn2C)cc1    -2.3
CNNCc1ccc(C(=O)NC(C)C)cc1    -17.9

--- query ---
Task: Check the records and state inhibition at 10 µM for NS(=O)(=O)c1cc2c(cc1Cl)NC=NS2(=O)=O
Output: -10.1

----------
Recorded inhibition at 10 µM values for a group of compounds are listed next.
Molecular target: BTK (Homo sapiens, UniProt Q06187)
Sequence (Q06187 402-655 limits assumed): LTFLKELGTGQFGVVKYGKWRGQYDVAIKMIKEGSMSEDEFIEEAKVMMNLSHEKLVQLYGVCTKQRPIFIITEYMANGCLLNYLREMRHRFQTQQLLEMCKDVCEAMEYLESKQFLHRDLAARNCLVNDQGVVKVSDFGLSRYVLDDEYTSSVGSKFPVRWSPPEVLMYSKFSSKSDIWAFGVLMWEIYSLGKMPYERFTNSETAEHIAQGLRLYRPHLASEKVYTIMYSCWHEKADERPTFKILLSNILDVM
Experiment: biochemical
Details: read-out: BTK inhibition (%), 0.75 uM BTK, […] probe 3l, 15 min preincubation
Write the value in % as a bare number.

Before answering, review these 5 worked examples.
COc1cc2c(cc1OC(C)C)[C@H](c1ccc(Cl)cc1)N(c1ccc(N(C)CC3CCC(N4CCN(C)C(=O)C4)CC3)cc1)C(=O)C2 (stereo partly drawn)    57.9
O=C(O)c1cc(O)c2c(c1)[C@@H]([C@H]1c3cc(C(=O)O)cc(O)c3C(=O)c3c(O[C@@H]4O[C@H](CO)[C@@H](O)[C@H](O)[C@H]4O)cccc31)c1cccc(O[C@@H]3O[C@H](CO)[C@@H](O)[C@H](O)[C@H]3O)c1C2=O    84.1
CCOC(=O)[C@H](CCc1ccccc1)N[C@@H](C)C(=O)N1C(=O)N(C)C[C@H]1C(=O)O    7
CC(C)COc1ccc(CNC(=O)N(Cc2ccc(F)cc2)C2CCN(C)CC2)cc1    -3.9
C[C@@H]1C(=O)O[C@H]2C[C@@]34[C@H]5C[C@@H](C(C)(C)C)[C@]36[C@@H](OC(=O)[C@@H]6O)O[C@@]4(C(=O)O5)[C@]21O    -7.8

Task: GET inhibition at 10 µM where system = BTK (Homo sapiens, UniProt Q06187) and item = N#CCC1(n2cc(-c3ncnc4[nH]ccc34)cn2)CN(C2CCN(C(=O)c3ccnc(C(F)(F)F)c3F)CC2)C1
Output: 12.4

----------
Target: BTK (Homo sapiens)
Experiment: biochemical
Details: read-out: BTK inhibition (%), 0.75 uM BTK, […] probe 3l, 15 min preincubation
property: inhibition at 10 µM (%)
Write the value in % as a bare number.

COc1cc2ncnc(Nc3ccc(F)c(Cl)c3)c2cc1OCCCN1CCOCC1    2.1
C[n+]1c2ccccc2nc2ccccc21    64.9
C[C@H](CS)C(=O)N1CCC[C@H]1C(=O)O    -2.3
COc1ccc2cc1Oc1ccc(cc1)C[C@H]1c3c(cc4c(c3Oc3cc5c(cc3OC)CCN(C)[C@@H]5C2)OCO4)CCN1C    30.4
CCCCC(=O)OCC(=O)[C@H]1[C@H](C)C[C@H]2[C@@H]3C[C@H](F)C4=CC(=O)C=C[C@]4(C)[C@@]3(F)[C@@H](O)C[C@@]21C    2.3
CC(C)CCNC(=O)[C@H](CC(C)C)NC(=O)[C@H]1O[C@@H]1C(=O)O    -16.2

Task: Check the records and state inhibition at 10 µM for CCCN(CCC)C(=O)C1=Cc2ccc(-c3ccc(C(=O)N4CCCC4)cc3)cc2N=C(N)C1
Output: -10.3

Task: Check the records and state inhibition at 10 µM for Fc1ccc2[nH]ccc2c1-c1nc(N2CCOCC2)c2sc(CN3CCN(CC4CC4)CC3)cc2n1
Output: -18.6

Task: Check the records and state inhibition at 10 µM for CN1[C@@H]2CC(O)C[C@H]1[C@@H]1O[C@@H]12 (stereo partly shown)
Output: -2.3

Task: Check the records and state inhibition at 10 µM for Cc1nc(-c2cccnc2)sc1C(=O)Nc1ccccc1-c1cn2c(CN3CCOCC3)csc2n1
Output: 12.4

Task: Check the records and state inhibition at 10 µM for N#CC(c1ccc(Cl)cc1)c1c(Cl)cc(-n2ncc(=O)[nH]c2=O)cc1Cl (stereo not shown)
Output: -0.8

----------
Biological target: BTK (Homo sapiens, UniProt Q06187)
Assay: biochemical
Conditions: read-out: BTK inhibition (%), 0.75 uM BTK, […] probe 3l, 15 min preincubation
Recorded inhibition at 10 µM values for a group of molecules are listed next.
Write the value in % as a bare number.

O=C1C[C@@H](c2ccc(O)cc2)Oc2cc(O)cc(O)c21 [PCM-0094816]    3.9

Task: Check the records and state inhibition at 10 µM for O=c1[nH]c(=O)n([C@H]2C[C@H](O)[C@@H](CO)O2)cc1F [PCM-0086169]
Output: -3.9

Task: Check the records and state inhibition at 10 µM for O=C(NN=Cc1ccc(O)c(O)c1)c1cc2ccccc2cc1O [PCM-0215235]
Output: 32.4

Task: Check the records and state inhibition at 10 µM for CCCc1nc(C)c2c(=O)[nH]c(-c3cc(S(=O)(=O)N4CCN(CC)CC4)ccc3OCC)nn12 [PCM-0086229]
Output: -10.9

Task: Check the records and state inhibition at 10 µM for COc1ccc(C(NC(=O)c2cnc(-c3cccnn3)[nH]c2=O)c2ccc(OC)cc2)cc1 [PCM-0215803]
Output: 18.5
